Origin of values: paper PMC10039853

study.system: hen egg lysozyme, P00698
Sequence (P00698 19-147): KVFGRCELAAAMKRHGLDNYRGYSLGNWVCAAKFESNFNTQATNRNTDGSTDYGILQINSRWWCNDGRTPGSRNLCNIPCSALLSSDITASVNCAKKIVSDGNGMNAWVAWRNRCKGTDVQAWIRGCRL
assay.protocol: ELISA
test.conditions: chain shown with the change;; parent: est. 0.92; read off a plot
parameter.measured: EC50 (ng/µL)
Express your answer in ng/µL, writing the number without its unit.

// known answers, use as guide
binder | EC50, ng/µL
anti-lysozyme VHH D3-L11, wild type A79L (protein) DVQLVESGGGSVQAGGSLRLSCAASGSTDSIEYMTWFRQAPGKAREGVAALYTHTGNTYYTDSVKGRFTISQDKAKNMLYLRMDSVKSEDTAIYTCGATRKYVPVRFALDQSSYDYWGQGTQVTVSS | 1.5
anti-lysozyme VHH D3-L11, wild type A79W (protein) DVQLVESGGGSVQAGGSLRLSCAASGSTDSIEYMTWFRQAPGKAREGVAALYTHTGNTYYTDSVKGRFTISQDKAKNMWYLRMDSVKSEDTAIYTCGATRKYVPVRFALDQSSYDYWGQGTQVTVSS | 1900

# ---- query binder ----
Prompt: Hello, please tell me recorded EC50 for this one: anti-lysozyme VHH D3-L11, wild type A79V (protein) DVQLVESGGGSVQAGGSLRLSCAASGSTDSIEYMTWFRQAPGKAREGVAALYTHTGNTYYTDSVKGRFTISQDKAKNMVYLRMDSVKSEDTAIYTCGATRKYVPVRFALDQSSYDYWGQGTQVTVSS
Completion: 2.5
